All values here come from the supplement of paper PMC9170038.

What apparent KD of MS2 coat protein was measured for each of the following?
Test system: MS2 coat protein
Assay: apparent KD of MS2 coat protein, switch OFF state (with FMN for OFF switches, without FMN for ON switches); designed switch direction (-1 OFF switch, 1 ON switch): 1; higher = weaker reporter binding
Details: FMN input: 0 or 200 uM; Eterna round: R93 (includes R88 designs)
One number for each entry, in nM.

Would you please look over these solved cases?
chain	resultValue
GCCGGUUAUGAGCAGGAUAUGUCACCGCUAACAUGAGGAUCACCCAUGUGAGCAAAAUCGAGGUCACAGAAGGGUUCCGGCAAAA [Disoerce]	41.9
GAAGAACAUGAGGAUCACCCAUGUGAGAACAUGGGAGGAUAUACGAGGACGAAAGUCAAAGUAGAAGGCCUAAGAG [Garnet 87]	29.8
AAAUAAAGGACUGAGGAUAUACCACAUGAAACAUGAGGAUCACCCAUGUUGAAAAACAGAGGGUGGUAGAAGGCAGUCCACAAAC [Same State 2.5d ( so lets mod hyphema)]	23.3
AAACCACAUGAGGAUCACCCAUGUAAAAAUAUGGGAGGAUAUGCGAAAAGAAACAAAGAAGCAGAAGGCCUAAAAA [75%, Ex sub1, 19]	114

// for each sequence in input: emit apparent KD of MS2 coat protein
1. UAUCAUUACACGAAGGAUAUCGAUAAUUGAACAUGAGGAUCACCCAUGUGAUAUAUAAUACAGUUCGAGAAGGUCGAGGGUGAAG [JR_SS002_Sub704]
2. GAAAAGAAAACACAGGAUAUCCAAAAGAAAACAUGAGGAUCACCCAUGUAAAGAAAAUAAAAAUGGGAGAAGGGUGAAAGAAAGA [Mat - Same State 2 - JL mod - D42]

Reply |
[23.9, 53.6]

* * *

System: MS2 coat protein
Experiment: apparent KD of MS2 coat protein; higher = weaker reporter binding
Conditions: Eterna round: R107; input ligand: none
Label 1 when apparent KD of MS2 coat protein is at or above 30 nM; otherwise label -1.

Answered cases to consult:
chain	experimentalTarget	assignedLabel
ACAUGAGGAUCACCCAUGUAACAAACAGAAGGAGCGUGAAAGAACACAGGUAGGUCGCUGAACUUAAUGAAUACUCAUUAGAUCC [JR_Nu_SSArginiA_Sub027]	MS2 coat protein	-1
GUUAUGAUAAGAAGGAGCGUCGAAAAUGGGUAAACAUGAGGAUCACCCAUGUAAAGGGAACGACAGGUAGGUCGCUUAUUAUAAC [AstromonsSSArgB#20]	MS2 coat protein	1
UGUGCAGGAUGUGUAAAAGGUCUUGGGCAUCGAGGACCGGUACGGCCGCCACUCGGCUGUACAUGAGGAUCACCCAUGUCAGGGU [#1 Same State - Tryptophan A Attempt #21 (HarryS)]	MS2 coat protein	1
UUGGGUUUGUGAAGGAGCGGGAAAGAUAUAUAUUUAAUCCUAACAUGAGGAUCACCCAUGUCCCAGGUAGGUCGCGCGGGUUUGG [12.O]	MS2 coat protein	1
UAGACGGCCGGAAGGAGCGGUACAUGAGGAUCACCCAUGUACUUCUGGGCAUCCGUAGUGUGCCAGGUAGGUCGCCGGUUGCGGG [XArg-B20]	MS2 coat protein	-1
AAAAGUAGGUCCAAUAAAACUACAUGUGAAGGAGCGCCCGAAAGGGCAGGUAGGUCGCACAUGAGGAUCACCCAUGUCCUACAAA [ArgEX 7 #OpenEnded]	MS2 coat protein	1
GGACUAACCAGAAGGAGCGGCACGCAGAAACUGCAAAAUCCUCCGCACGAGGAUCACCCGUGUCAGGUAGGUCGCUGGUUAGUCG [ArgBX 28]	MS2 coat protein	1
GCGAUGGAGCGAAGGAGCGUGCUGGUACAUGAGGAUCACCCAUGUGAACCGCAGCGCUAAGCACAGGUAGGUCGCGCUCCAUCGC [EAB NP+V+V2 #14]	MS2 coat protein	-1
GCGCGGCGAGUGCGGCGUGUUCCGCUCCGUCGAGGACCGGUACGGCCGCCACUCGACAUGAGGAUCACCCAUGUCGCCGCGCGCG [Exclusion - Tryptophan A Attempt #3]	MS2 coat protein	-1
AACGUAUACAGAAGGAGCGUGAUUUGUGUUACUCAUUCAUAUACAUGAGGAUCACCCAUGUCACAGGUAGGUCGCUGUAUUCGUA [JR_ExcArginiB_Sub022]	MS2 coat protein	1

Ask | apparent KD of MS2 coat protein >= 30 nM for AGCGUAUAGACGGAUACCAGCGCCGAUUAACAUGAGGAUCACCCAUGUAGUGUGGGUGGACGCCCUUGGCAGCCGAGUAUAGGUA [#07 Exclusion-TheophyllineB] ?
Reply | 1

Ask | Check if apparent KD of MS2 coat protein >= 30 nM (inclusive). Item: UGUAUGGACUGAAGGAGCGACUCAAAAUAACAUGAGGAUCACCCAUGUAAGGCGAAAGCCGGUCAGGUAGGUCGCAGUCCAUACU [ArgBX 3]
Reply | -1
